Entries and their Tmax
assay: Tmax in female BALB/c mouse at 10 mg/kg, po administered as single dose by LC-MS/MS analysis; format: ADME, organism-based; conditions: in vivo
Note: unit min is implicit; provide only the numeric part.

{"MOLECULE": "C=CC(=O)N1CCN(c2c(C#N)c(=O)n(-c3c(C)ccnc3C(C)C)c3nc(-c4c(N)cccc4F)c(Cl)cc23)CC1", "Tmax, min": 20}
{"MOLECULE": "C=CC(=O)N1CCN(c2c(C#N)c(=O)n(-c3c(C)ccnc3C(C)C)c3nc(-c4c(N)c(F)c(F)c(F)c4F)c(Cl)cc23)CC1 (atropisomer M)", "Tmax, min": 25}

# input for lookup
What the record says about C=CC(=O)N1CCN(c2c(C#N)c(=O)n(-c3c(C)ccnc3C(C)C)c3nc(-c4c(N)c(Cl)cc(Cl)c4F)c(Cl)cc23)CC1 (atropisomer M) : Tmax is 60
